Where do these numbers come from? They come from a melting point compilation (Tetko et al.; mined from patent text by program, amines drawn as free bases though some values may be those of a salt).

Measurement Name: melting point

In [3]: df
Out[3]:
                                   compound  measurement_name      obs_value
0                CCCc1ccc(OCCc2c[nH]cn2)cc1     melting point  168 to 171 °C
1  CC(CC(C(C)C(C)(C)O)N(C)C)C1CCC2C(O)CCCC12C (stereo not drawn)     melting point  180 to 181 °C
2       Clc1c2ccccc2nc2c1c(CBr)nn2-c1ccccn1     melting point  203 to 205 °C

###

Measurement Name: melting point

In [3]: df
Out[3]:
                                   compound      obs_value
0             N#Cc1cc2nc(O)c(O)nc2c2ccccc12       > 300 °C
1  COCC1CN(c2ccc(C3CCC(OC(=O)c4ccccc4C4=NCCO4)CC3)cc2)C(=O)O1 (racemic)  182 to 184 °C
2  CC1(C)Oc2ccc(C#N)cc2[C@@H](N2CCN(C(=O)c3ccco3)CC2=O)[C@@H]1O (relative stereo)  226 to 229 °C
3  CC(=NOCc1ccc(OCc2nc(-c3ccccc3)oc2C)cc1)C(=O)O  147 to 148 °C
4           CC(C)(C)C(=O)C(=C1SCCS1)n1cncn1         141 °C
5  COC(=O)CN1C(=O)c2ccccc2Nc2ccc(OCc3cccc4ccccc34)cc21    85 to 92 °C
6  c1ccc(Oc2nc(Oc3ccccc3)nc(N3CCOCC3)n2)cc1  166 to 168 °C
7  CCn1cc(CN(C(=O)C2CCc3ccccc32)c2ccc(C(C)C)cc2)cn1 (stereo not given)    83 to 84 °C
8     COC(=O)c1ncn2c3cccc(Cl)c3c(=O)n(C)c12  210 to 220 °C
9  CCCCCCCCCCCCCCCC(CC)C1OC(=O)C(O)=C1O (stereo not given)  114 to 117 °C

###

Measurement Name: melting point

In [3]: df
Out[3]:
                                    molecule      obs_value
 0  Cc1nc2ccccn2c1-c1csc(Nc2ccc(C(=O)NO)cc2)n1         188 °C
 1  CC(C)(C)OC(=O)N1CCn2c(Cl)c(-c3cccc(C#N)c3)c(C(=O)O)c2C1  208 to 210 °C
 2            O=C1CCc2c(Cc3ccc(Cl)cc3)cccc21    87 to 88 °C
 3  Cn1ncc(/C=C/C(=O)Nc2ccc(Cc3nccs3)cc2)c1-c1ccc(F)cc1  209 to 210 °C
 4          C=C(C)Cc1c(C)c2c(c(C)c1O)CCN2C=O  132 to 134 °C
 5         CCOC(=O)Nc1ccc2oc(Cc3ccccc3)cc2c1          95 °C
 6  COC(=O)N1CCC(C(C#N)(c2ccccc2)c2ccccc2)C1 (stereo not given)  133 to 135 °C
 7  CCCCCc1nc(C)c(C(=O)OCC)n1Cc1ccc2oc(-c3ccccc3-c3nnn[nH]3)c(Br)c2c1  103 to 104 °C
 8  N=C(NO)c1nn(-c2c(Cl)cc(C(F)(F)F)cc2Cl)c(C=O)c1SC(F)(F)F    72 to 75 °C
 9  O=C(O)c1cccc(C[C@@H]2COc3ccc(OCc4ccccn4)cc3[C@@H]2O)c1 (relative stereo)  196 to 198 °C
10             O=C(O)c1ccc(F)cc1Sc1ccc(F)cc1  209 to 218 °C
11  CCSc1ccc(CC(=O)NC(NC(Cc2ccccc2C)=NC#N)C(C)(C)C)cc1 (stereo not given)  196 to 198 °C
12  CCOC(=O)c1ccccc1N(CC(=O)N(C)c1ccccc1)C(=O)CNC(=O)Nc1cccc(CO)c1         184 °C
13  CCCNC(=O)C(C)Cc1ccc2c(c1)c(Cc1ccc(C(=O)O)cc1OC)cn2C(C)C (stereo not given)  103 to 109 °C
14  O=C(CN1CCCC1=O)N1CCC(C2c3ncc(Br)cc3CCc3cc(Cl)cc(Br)c32)CC1 (single isomer, unassigned; (+))  118 to 119 °C
15  CC(C)N1OCCC(=Cc2cc(C(C)(C)C)c(O)c(C(C)(C)C)c2)C1=O  181 to 183 °C
16  COC(=O)C(Oc1ccc(C(C)(C)C)cc1Cl)c1ccc(Oc2ccc(Cl)cc2)cc1 (stereo not given)  85.5 to 88 °C
17  O=S(=O)(Cl)c1cc(Cl)c(Cl)c(S(=O)(=O)Cl)c1  114 to 115 °C
18               CC(C)S(=O)(=O)Nc1ccc(Br)cc1   98 to 100 °C
19  c1ccc2c(c1)CC1(C3=NCCN3)CC21 (single isomer, unassigned; (+))  245 to 247 °C
20  Cc1ccc(C(CC(=O)O)c2ccc(F)cc2)cc1 (stereo not given)  137 to 139 °C
21  CCCCCCCCCCCCOCC(C=CC(=O)N(C)C)(C=CC(=O)N(C)C)COCCCCCCCCCCCC    52 to 54 °C
22  O=C(O)CCc1cn(Cc2ccc(OCc3csc(-c4cccnc4)n3)cc2)cc1-c1ccccc1  118 to 119 °C
23        O=C(O)C(=O)C12CC3CC(CC(O)(C3)C1)C2  164 to 166 °C
24  Cc1cc(CO)nc2cc3c(cc12)OC(C)(C)[C@H](O)[C@H]3NCCc1ccc(F)cc1 (relative stereo)  147 to 152 °C
